assay: gradient 5% acetonitrile 3 min, to 50% in 2 min, to 85% in 15 min, held 3 min, 100 µL/min; conditions: column: Zorbax Extend-C18 2.1 x 50 mm; eluents: water / acetonitrile, 0.1% formic acid
Please provide measured RP-LC retention time for the entries that follow.
Give your result as the value with the unit written after it.

Entry under review: CCc1nnc(-c2cc(S(=O)(=O)NCCCc3ccccc3)cn2C)o1 . Reported RP-LC retention time?
864 s

Thanks! And O=C(C1=CN(c2ccc(F)c(Cl)c2)c2ccccc2S1(=O)=O)N1CCOCC1 ?
786 s

Item: CCn1cc(-c2nc(CC(=O)Nc3ccc(C)cc3F)cs2)c2cccnc21
865 s

Entry CC1(C)CC(=O)c2cnc(N3CCN(c4ccccn4)CC3)nc2C1 please
621 s

Check Cc1noc2ncn(CC(=O)Nc3c(F)c(F)cc(F)c3F)c(=O)c12 too.
759 s

Note, next up: COc1cccc(-c2noc(C3CCCN3C(=O)NC(C)C)n2)c1 (centres undefined)
802 s

Same for Cc1ccc(NC(=O)C2CCCN(c3nc4ccsc4c(=O)n3Cc3ccc(F)cc3)C2)cc1 (centres undefined)
1030 s

Next: CCc1cccc(C)c1NC(=O)Cn1ncc2c(N3CCN(c4ccccn4)CC3)ncnc21
570 s

Also Cc1ccc(N2CCN(C(=O)c3cn4nc(Cl)ccc4n3)CC2)cc1 , if possible.
823 s

----------
assay: gradient 5% acetonitrile 3 min, to 50% in 2 min, to 85% in 15 min, held 3 min, 100 µL/min; conditions: column: Zorbax Extend-C18 2.1 x 50 mm; eluents: water / acetonitrile, 0.1% formic acid
attribute-measured: RP-LC retention time (s)
Your answer should be a plain number; it is taken to be in s.

Would you kindly share the measured RP-LC retention time for O=C(Cc1cccs1)NC1CCc2nnc(C3CC3)n2CC1 (stereo not given) ?
598

Repeat for the following molecule: CCc1nc(-c2c(C)cc(C)nc2NC(=O)c2cc(C)cc(C)c2)no1
605

What do you get for CCCCS(=O)(=O)N1CC(c2nc(C)no2)C2(CCOCC2)C1 (stereo not given) ?
783

Thanks! And Cc1cc(C)cc(-n2ccn(Cc3nc(-c4ccc(C(C)(C)C)cc4)no3)c(=O)c2=O)c1 ?
1130

Another molecule: Cc1cc(C)cc(N2CCC(NC(=O)Cc3ccsc3)C2=O)c1 (stereo not given)
637

Entry O=C([C@@H]1C[C@H](F)CN1S(=O)(=O)c1cccc(C(F)(F)F)c1)N1CCCCC1 please
878

Also O=C(c1nccc2ccccc12)N1CCc2cc(-c3ccno3)ccc21 , if possible.
1000

Field entry: COc1ccc(Br)cc1CNC(=O)CN1C(=O)CCCc2ccccc21
892

For O=C(c1ccc(OCC2CCCN2C(=O)C2CCCC2)cc1)N1CCOCC1 (stereo not given) then?
750

Now consider O=C(c1ccc(OCC2CCCN2C(=O)c2ccc(F)c(F)c2)cc1)N1CCCC1 (stereo not given) and answer again.
779

----------
test: gradient 5% acetonitrile 3 min, to 50% in 2 min, to 85% in 15 min, held 3 min, 100 µL/min; conditions: column: Zorbax Extend-C18 2.1 x 50 mm; eluents: water / acetonitrile, 0.1% formic acid
Please note: TRUE applies when RP-LC retention time is 700 s or greater, and FALSE applies otherwise.

Could you tell me if the measured RP-LC retention time of Cc1noc2ncnc(N3CCC(C(=O)N4CCCc5ccccc54)CC3)c12 reaches 700 s or more?
TRUE

Then what about the compound O=C(Nc1ccc(Cl)cc1)C1CC(=O)N(c2n[nH]c3cccc(F)c23)C1 (stereo not given) ?
TRUE

Now the compound CCOc1ccc2ncc(C(=O)c3ccc(OC)cc3)c(N3CCN(C)CC3)c2c1
FALSE

----------
test: gradient 5% acetonitrile 3 min, to 50% in 2 min, to 85% in 15 min, held 3 min, 100 µL/min; settings: column: Zorbax Extend-C18 2.1 x 50 mm; eluents: water / acetonitrile, 0.1% formic acid
attribute-measured: RP-LC retention time (s)
Quick note: give the figure in s, leave out the unit.

Entry under review: Cc1nc(C)c(C(=O)NCC23CCC=C2N(C)C(=O)CC3)s1 (stereo not given) . Reported RP-LC retention time?
651

Further, for CCn1nc(-c2csc(S(=O)(=O)N3CCCCC3C)c2)ccc1=O (stereo not given) ?
896

What do you get for CC1Oc2ccc(S(=O)(=O)N3CCC(C(=O)N(C)C4CCCCC4)CC3)cc2NC1=O (stereo not given) ?
858

Entry to check: O=C(CSc1cc(-n2cccn2)ncn1)Nc1ccccc1Br
965

And Cc1cc(N2CCN(S(=O)(=O)c3ccccc3Cl)CC2)nc(NC2CCCCC2)n1 ?
838

Do the same for CC(C)NC(=O)c1cc2cc(Br)ccc2[nH]1 please
879

Please do the same for Cc1cc(C)cc(C(=O)Nc2ccc(N3CCN(c4ccccc4)C3=O)nc2)c1 as well.
1050

// repeat for CCOc1ccc(N2CC(c3nc(-c4ccc(OC)cc4OC)no3)CC2=O)cc1 (stereo not given) and report
902

Further, for CCOCCCNC(=O)c1cn(CC)nc1S(=O)(=O)N1CCN(c2cccc(Cl)c2)CC1 ?
1030

# iterate: CCc1nn2c(N3CCN(c4ccccn4)CC3)cc(C)nc2c1-c1ccc(F)cc1
686

Proceed to CCOC(=O)c1ccc(Nc2c(-c3cccc(Cl)c3)nc3cnccn23)cc1
978

# repeat for Cc1ccc(C)c(NC(=O)Cn2nc3c(N4CCC(C)CC4)nccn3c2=O)c1
864

For Cc1nc(-c2csc(S(=O)(=O)N3CCC(C(=O)Nc4ccc(Cl)cc4)CC3)c2)no1 then?
986

Please answer likewise for Cc1nc(-c2csc(S(=O)(=O)N3CCCC(C(=O)NC4CCCCCC4)C3)c2)no1 (stereo not given)
1000

What about O=S(=O)(c1ccc(-c2nnc(C3CC3)o2)o1)N1CCN(c2ccccc2)CC1 ?
971

What do you get for CCc1nc2ccccc2n1CC(O)COc1cc(C)cc(C)c1 (stereo not given) ?
733

Likewise for COCc1ncc(C)n1CC1CCN(Cc2sccc2C)CC1 ?
534

Another molecule: Cc1ccc(NC(=O)Cn2c(=O)n(-c3ccc(F)cc3)c(=O)c3c2cc(C)n3C)c(C)c1
879

Try CCCCN(C(=O)c1noc2c1CC(C)CC2)C1CCN(C(C)=O)CC1 (stereo not given) next.
895

Likewise for COC(=O)c1ccc2c(=O)n(-c3ccc(OC)cc3)c(N3CCSC3)nc2c1 ?
1050

----------
assay: gradient 5% acetonitrile 3 min, to 50% in 2 min, to 85% in 15 min, held 3 min, 100 µL/min; details: column: Zorbax Extend-C18 2.1 x 50 mm; eluents: water / acetonitrile, 0.1% formic acid
Please provide measured RP-LC retention time for the entries that follow.
A bare number is not enough; add the unit after it.

Could you tell me which RP-LC retention time is on file for C/C(=C\c1csc(C)n1)C1C[C@@H]2O[C@]2(C)CCC[C@H](C)[C@H](O)[C@@H](C)C(=O)C(C)(C)[C@@H](O)CC(=O)O1 (some centres undefined) ?
901 s

# iterate: O=C(Cn1nc(N2CCSCC2)c2ccccc2c1=O)Nc1ccccc1
890 s

Further, for Cc1ccc(C(=O)Nc2nccnc2C(=O)N2CCC3(CC2)OCCO3)cc1 ?
724 s

Cc1cc2c(cc1S(=O)(=O)N1CCC(C(=O)N3CCCCC3)CC1)OCC(=O)N2 , same question.
734 s

----------
Would you mind telling me the reported RP-LC retention time of each entry?
assay: gradient 5% acetonitrile 3 min, to 50% in 2 min, to 85% in 15 min, held 3 min, 100 µL/min; settings: column: Zorbax Extend-C18 2.1 x 50 mm; eluents: water / acetonitrile, 0.1% formic acid
Field format: number, assumed s, no unit text.

What does the record list as RP-LC retention time for Cc1cc(C)n(Cc2nc(-c3ccc(NC(=O)C(C)C)cc3)oc2C)n1 ?
816

Then COCCNC(=O)CN1C(=O)C2CCCCN2c2ccc(S(=O)(=O)N3CCCC3)cc21 (centres undefined) ?
728

How about CCN(CC)c1nc2cc(C(=O)OC)ccc2c(=O)n1-c1ccc(C)cc1 ?
1210

Param item: CN1CCC2(CCN3CCc4c(oc5ccccc45)C3C2)N(C)C1=O (centres undefined)
615

Cool, now CN(C)C(=O)c1ccc2c(c1)N(CC(=O)N1CCN(c3ccccc3)CC1)C(=O)C1CCCCN21 (centres undefined)
778

Also Cc1ccc2c(=O)c(C(=O)N3CCC(C)CC3)cn(CC(=O)Nc3ccccc3)c2n1 , if possible.
783

Quick one: Cc1c(C(=O)Nc2ccccc2)cnc2nc(-c3ccncc3)nn12
594

// query: CCCC(=O)Nc1ccc2c(c1)N(C(=O)c1cccs1)CCC2
801

Proceed to CCNC(=O)C1CCCN(c2nc3ncn(CC(=O)Nc4ccc(C)c(Cl)c4)c(=O)c3s2)C1 (centres undefined)
738

Try COc1cccc(NC(=O)c2cc(C(C)(C)C)n3nccc3n2)c1 next.
1250

Same thing, different molecule: CCc1nc2sc(C(C)C)nn2c1S(=O)(=O)NC1CCCCC1
1020

Same lookup for Cc1ccc(CN2CCN(CC(=O)Nc3ccncc3)C(=O)C2=O)cc1 , please.
588

Same for Cc1cnc(C(=O)N2CC(n3cc(COc4ccncc4)nn3)C2)cn1
553

Lookup CC1CCCCN1CCN(CCC(=O)N1CCNCC1)C(=O)c1ccc(C(C)(C)C)cc1 (centres undefined)
593

Please answer likewise for O=C(Nc1ncc(-c2ccccc2)s1)c1ccc(S(=O)(=O)N2CCCCC2)cc1
1040

Now consider O=C(Cn1ccc2ccc(N3CCCCC3)nc21)NCc1ccc(F)cc1Cl and answer again.
991

Same thing, different molecule: Cc1ccc(C(=O)Nc2ccc3c(c2)Sc2ncccc2C(=O)N3C)cc1C
876

Here is the next molecule: O=C(Nc1ccccc1F)C(=O)c1cn(CC(=O)N2CCOCC2)c2ccccc12
906

Ok, now O=C(NCc1cccs1)C1CCN(C(=O)c2cc(-c3ccncc3)n[nH]2)CC1
572

Reference for the values: the METLIN SMRT retention time set (Domingo-Almenara et al. 2019)
